biological target: human SETD7 (Homo sapiens, UniProt Q8WTS6); test: Steady-state kinetics of SETD7-catalysed methylation; assay type: biochemical; conditions: steady-state, SAM 30 µM, 37 °C, n = 3
Sequence (Q8WTS6 whole entry): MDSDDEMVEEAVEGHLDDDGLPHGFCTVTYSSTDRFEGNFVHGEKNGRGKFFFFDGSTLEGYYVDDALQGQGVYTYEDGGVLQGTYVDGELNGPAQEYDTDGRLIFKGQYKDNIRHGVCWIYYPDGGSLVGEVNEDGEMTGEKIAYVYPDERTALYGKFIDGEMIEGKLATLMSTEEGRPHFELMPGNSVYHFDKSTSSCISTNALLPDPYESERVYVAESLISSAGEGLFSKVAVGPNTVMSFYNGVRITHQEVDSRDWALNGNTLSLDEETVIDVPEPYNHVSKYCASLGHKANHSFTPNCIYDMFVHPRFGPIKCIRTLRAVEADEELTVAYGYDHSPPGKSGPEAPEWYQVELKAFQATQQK
No end group written: not given here.
Endpoint: k cat/Km (M⁻¹ s⁻¹)

Past entries and their recorded results:
Substance: D-ARTKQEARKSTGG (sidechain bridge or staple) [Peptide 6]
Reported Result: 22200

Substance: FRTKQEARKSTGG (also: sidechain bridge or staple (positions not given here)) [Peptide 9]
Reported Result: 1430

A: AzaRTKQPraARKSTGG (sidechain bridge or staple) [Peptide 3]
B: ARTKQDARKSTGG (also: sidechain bridge or staple (positions not given here)) [Peptide 5]
I'm curious whether A or B has the smaller k cat/Km number. Which is it? Answer by stating the label of the chosen item.
A
(A: 1650 M⁻¹ s⁻¹, B: 2500 M⁻¹ s⁻¹)
